- System: Human immunodeficiency virus 1
- method: Antiviral activity against HIV1 NL4-3 assessed as inhibition of viral infection in human TZM-bl cells measured after 1 day by luciferase reporter gene assay
- Type: functional, organism-based
- condition_parameters: Human immunodeficiency virus 1, NL4-3, TZM-bl, 24 h
Items are presented alongside their recorded EC50.
value_type: EC50 (nM)

1) Cc1cc(CCC#N)cc(C)c1Oc1cc(Nc2ccc(C#N)cc2)c(N)cc1Cl; 11.3
2) CNC(=O)OCc1cc(N)c(Nc2ccc(C#N)cc2)cc1Oc1c(C)cc(CCC#N)cc1C; 16
3) CCOCc1cc(N)c(Nc2ccc(C#N)cc2)cc1Oc1c(C)cc(CCC#N)cc1C; 14.3
